Where do these numbers come from? They come from patent US12194048B2.

# TARGET_ENTITY: hERG (Homo sapiens, UniProt Q12809)
# Sequence (Q12809 whole entry): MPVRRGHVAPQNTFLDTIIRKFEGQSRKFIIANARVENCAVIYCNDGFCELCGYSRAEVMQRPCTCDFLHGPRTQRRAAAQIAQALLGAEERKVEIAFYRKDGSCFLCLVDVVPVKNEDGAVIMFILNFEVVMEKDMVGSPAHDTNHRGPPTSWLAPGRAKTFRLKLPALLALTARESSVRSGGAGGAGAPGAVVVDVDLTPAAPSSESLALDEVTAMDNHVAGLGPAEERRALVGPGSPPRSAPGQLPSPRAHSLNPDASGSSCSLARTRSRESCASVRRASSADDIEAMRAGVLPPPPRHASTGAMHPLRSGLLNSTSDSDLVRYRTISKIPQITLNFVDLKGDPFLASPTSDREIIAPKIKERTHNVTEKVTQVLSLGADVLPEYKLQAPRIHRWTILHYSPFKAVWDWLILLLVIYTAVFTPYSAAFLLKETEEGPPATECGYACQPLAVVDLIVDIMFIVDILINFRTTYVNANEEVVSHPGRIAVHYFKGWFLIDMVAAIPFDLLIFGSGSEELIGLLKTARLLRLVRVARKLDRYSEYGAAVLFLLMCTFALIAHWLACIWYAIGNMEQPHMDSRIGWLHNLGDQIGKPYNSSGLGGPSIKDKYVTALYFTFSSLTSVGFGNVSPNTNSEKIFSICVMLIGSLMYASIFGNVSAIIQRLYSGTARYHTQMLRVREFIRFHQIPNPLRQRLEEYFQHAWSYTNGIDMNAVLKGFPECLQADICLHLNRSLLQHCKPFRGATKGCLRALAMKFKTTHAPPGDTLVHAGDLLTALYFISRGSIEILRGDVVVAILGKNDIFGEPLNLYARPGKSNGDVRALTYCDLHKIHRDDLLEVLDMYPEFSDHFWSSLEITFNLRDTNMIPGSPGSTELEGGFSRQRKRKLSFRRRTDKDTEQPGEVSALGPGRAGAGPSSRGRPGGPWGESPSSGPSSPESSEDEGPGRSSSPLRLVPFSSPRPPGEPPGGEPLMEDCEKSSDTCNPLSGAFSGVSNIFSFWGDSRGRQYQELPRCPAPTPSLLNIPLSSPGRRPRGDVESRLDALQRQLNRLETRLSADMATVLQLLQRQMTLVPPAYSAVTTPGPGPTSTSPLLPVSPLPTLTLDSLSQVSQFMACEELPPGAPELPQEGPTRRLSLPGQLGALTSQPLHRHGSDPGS
PROPERTY: IC50

*Q* Requested field: IC50. Item: CCNc1cc(Nc2ccc(C(=O)N3CCC(N4CCOCC4)CC3)cc2OC)nc2[nH]cc(C(F)(F)F)c12 [Compound 1]
*A* 4.39 µM

----------
# ASSAY_TEXT: Caco-2 permeability
# Assay type: in vitro ADME
# CONDITION_CONTEXT: human
PROPERTY: Papp (×10⁻⁶ cm/s)
API: value field is a number in ×10⁻⁶ cm/s; no unit string.

*Q* Requested field: Papp. Item: CCNc1cc(Nc2ccc(C(=O)N3CCC(N4CCOCC4)CC3)cc2OC)nc2[nH]cc(C(F)(F)F)c12 [Compound 1]
*A* 0.201
